B1: CDC25A (parent)
chain: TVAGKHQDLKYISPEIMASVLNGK

Variants of: B1
protocol.description: protein stability index of a GFP-peptide fusion (GPS, HEK-293T) (PSI 1-6); higher = more stable;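 further: lentivirally expressed fusions sorted by FACS into six bins by GFP to DsRed ratio, PSI derived from sequencing read proportions per bin multiplied by bin number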
reported.conditions: c terminus: a fixed tail appended
Rule: protein stability index of 3 or more gives Condition met; anything lower gives Condition not met.

**Q:** State whether the measured protein stability index reaches 3, counting equality as reaching it, for S13Y
**A:** Condition not met

**Q:** State whether the measured protein stability index reaches 3, counting equality as reaching it, for Q7K
**A:** Condition not met

**Q:** State whether the measured protein stability index reaches 3, counting equality as reaching it, for T1Y
**A:** Condition met

**Q:** State whether the measured protein stability index reaches 3, counting equality as reaching it, for A18C
**A:** Condition met

**Q:** State whether the measured protein stability index reaches 3, counting equality as reaching it, for P14E
**A:** Condition met

**Q:** State whether the measured protein stability index reaches 3, counting equality as reaching it, for K24L
**A:** Condition not met

**Q:** State whether the measured protein stability index reaches 3, counting equality as reaching it, for L9A
**A:** Condition met

**Q:** State whether the measured protein stability index reaches 3, counting equality as reaching it, for D8K
**A:** Condition not met

**Q:** State whether the measured protein stability index reaches 3, counting equality as reaching it, for M17Q
**A:** Condition met

**Q:** State whether the measured protein stability index reaches 3, counting equality as reaching it, for P14A
**A:** Condition not met

**Q:** State whether the measured protein stability index reaches 3, counting equality as reaching it, for N22W
**A:** Condition not met

**Q:** State whether the measured protein stability index reaches 3, counting equality as reaching it, for T1N
**A:** Condition met

**Q:** State whether the measured protein stability index reaches 3, counting equality as reaching it, for V2P
**A:** Condition met

**Q:** State whether the measured protein stability index reaches 3, counting equality as reaching it, for K10M
**A:** Condition not met

**Q:** State whether the measured protein stability index reaches 3, counting equality as reaching it, for P14N
**A:** Condition met

**Q:** State whether the measured protein stability index reaches 3, counting equality as reaching it, for I16Q
**A:** Condition met

**Q:** State whether the measured protein stability index reaches 3, counting equality as reaching it, for Q7L
**A:** Condition not met

**Q:** State whether the measured protein stability index reaches 3, counting equality as reaching it, for S13P
**A:** Condition met

**Q:** State whether the measured protein stability index reaches 3, counting equality as reaching it, for Y11N
**A:** Condition met

**Q:** State whether the measured protein stability index reaches 3, counting equality as reaching it, for Q7R
**A:** Condition not met

**Q:** State whether the measured protein stability index reaches 3, counting equality as reaching it, for P14M
**A:** Condition not met

**Q:** State whether the measured protein stability index reaches 3, counting equality as reaching it, for Y11A
**A:** Condition met
